- System: BT-549 breast
- assay-summary: NCI tumour cell line growth inhibition, 48 h
Where a SMILES comes first, the peptide text is derived from it. [ ]: non-standard residue; d: D form. The star is where a group is joined. NMeAc5c = CNC1(C(=O)O)CCCC1; Boc = CC(C)(C)OC(=O)*; OBn = c1ccc(CO*)cc1
A collection of compounds and their measured TGI

compound=COc1ccc(COCCOCc2nc(C#N)c(N)o2)cc1 metric=TGI recorded_measurement="> 100 µM"
compound="COc1cc2c(c3oc4c(O)cccc4c(=O)c13)CC(C(C)(O)CO)O2 (stereo not drawn)" metric=TGI recorded_measurement="> 100 µM"
compound=Cc1ccccc1C(=O)N1CCc2c([nH]c3ccccc23)C1 metric=TGI recorded_measurement="42.8 µM"

[ask] Name the reported TGI value associated with the compound COc1cc2c(cc1OCCCCN1CCN(CC(=O)Nc3ccc(Cl)cc3C(=O)c3ccccc3Cl)CC1)N=CC1CCCN1C2=O (stereo not drawn)
[reply] 0.799 µM

[ask] Which TGI value is on record for COc1cc(/C=N\NC(=O)CN2CCN(c3cc4c(cc3F)c(=O)c(C(=O)N/N=C/c3cc(OC)c(OC)c(OC)c3)cn4C3CC3)CC2)cc(OC)c1OC ?
[reply] 0.461 µM

[ask] Please report the recorded TGI for N#CC1(C#N)N[C@@H](c2ccsc2)[C@H]2C(=O)N(c3ccccc3)C(=O)[C@H]21 .
[reply] > 100 µM

[ask] Item COC(=O)c1cc(=O)nc2sc3cccc(C)c3n12 has what recorded TGI?
[reply] > 100 µM

[ask] Look up TGI: CN(C(=O)C(Cc1ccccc1)NC(=O)OC(C)(C)C)C1(C(=O)NC(Cc2ccccc2)C(=O)OCc2ccccc2)CCCC1 (stereo not drawn) (Boc-Phe-[NMeAc5c]-Phe-OBn; configuration not given here)
[reply] > 100 µM

[ask] Record request: TGI value, item C1CN(c2nc3c(nnc4nc(N5CCOCC5)sc43)s2)CCO1
[reply] > 100 µM

[ask] Recorded TGI of O=[N+]([O-])c1cccc(-c2csc(NNC3=NC/C(=C/c4ccc5c(c4)OCO5)S3)n2)c1 , please.
[reply] > 100 µM

[ask] Could you tell me which TGI is on file for Nc1c(C(=O)c2cccc(CCS(N)(=O)=O)c2)cnn1-c1ccc(F)cc1 ?
[reply] > 25 µM

[ask] Requested field: TGI. Item: COc1cc2nc3n(c(=O)c2cc1OC)-c1ccc([N+](=O)[O-])cc1C3=O
[reply] > 100 µM

[ask] Any idea what its TGI is? The compound is O=C(Nc1ccc(F)cc1)Nc1ccc(Cl)c([N+](=O)[O-])c1
[reply] 10.8 µM

[ask] Param item = OCCN(CCO)c1ncnc2c1ncn2Cc1ccc(CCl)cc1 ; retrieve measured TGI.
[reply] 24.6 µM

[ask] # get_value(readout='TGI', item= O=[N+]([O-])c1ccc2c(c1)c(OCc1ccccc1)nn2Cc1ccccc1 )
[reply] > 100 µM

[ask] Give the measured TGI of O=C1/C(=C\c2ccccc2)C(NC2CCCCC2)c2ccccc21 (stereo not drawn) .
[reply] 5.69 µM

[ask] Name the recorded TGI for O=C1NC(=NCCc2cccc(F)c2)S/C1=C\c1ccc2ncccc2c1 .
[reply] > 25 µM

[ask] What value of TGI has been reported for the following compound? COc1ccc(N/N=C2\CCOc3ccc(C)cc3C2=O)cc1
[reply] 87.5 µM
